Tested on: NCI-H1299 cells
Test: MTT based cell viability assay on NCI-H1299 cells
Settings: NCI-H1299 cells, read-out: IC50, growth inhibition of NCI-H1299 cells
recorded_metric: IC50 (nM)
Give the number; nM is assumed, so skip it.

Record for CN1CCN(c2ccc(Nc3ncc4c(n3)N3CCN=C3N(c3c(Cl)cccc3Cl)C4=O)cc2Cl)CC1 [Example 71] under target or system NCI-H1299 cells: IC50 reported as 603

====

Biological target: UniProt P30291
Sequence (P30291 whole entry): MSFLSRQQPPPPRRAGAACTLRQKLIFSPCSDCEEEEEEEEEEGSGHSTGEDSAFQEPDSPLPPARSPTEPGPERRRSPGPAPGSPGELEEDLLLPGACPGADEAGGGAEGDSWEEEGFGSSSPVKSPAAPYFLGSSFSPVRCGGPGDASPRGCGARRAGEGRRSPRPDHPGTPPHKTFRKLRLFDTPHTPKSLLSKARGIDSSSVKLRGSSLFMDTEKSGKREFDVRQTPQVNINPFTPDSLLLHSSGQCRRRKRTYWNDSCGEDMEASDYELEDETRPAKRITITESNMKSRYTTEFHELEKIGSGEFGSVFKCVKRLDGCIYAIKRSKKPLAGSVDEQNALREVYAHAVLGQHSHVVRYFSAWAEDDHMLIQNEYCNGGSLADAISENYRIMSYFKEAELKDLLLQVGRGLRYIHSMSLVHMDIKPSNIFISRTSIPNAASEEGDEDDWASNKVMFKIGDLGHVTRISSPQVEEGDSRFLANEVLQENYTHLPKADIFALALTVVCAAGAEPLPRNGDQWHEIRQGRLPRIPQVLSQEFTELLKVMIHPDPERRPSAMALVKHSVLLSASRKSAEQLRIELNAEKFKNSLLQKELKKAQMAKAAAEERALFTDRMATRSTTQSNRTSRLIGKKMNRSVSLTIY
Assay: Wee1 kinase (h) detection method, [γ-33P]-ATP filter assay
Assay type: biochemical
Settings: C 1 μm compound
Parameter Inh. (%) of Wee1 kinase enzyme activity: see the listing below.
Give the value in % but do not write % after it.

Cc1cc(Nc2ncc3c(n2)N2CCN=C2N(c2c(C)cccc2Cl)C3=O)cc(C)c1N1CCN(C)CC1    94
Cc1cc(Nc2ncc3c(n2)N2CCN=C2N(c2c(F)cccc2Cl)C3=O)ccc1N1CCN(C(C)C)CC1    93
COc1cc(Nc2ncc3c(n2)N2CCN=C2N(c2c(Cl)cccc2Cl)C3=O)cc(Cl)c1N1CCC(N(C)C)CC1    97
CN1CCn2nc(Nc3ncc4c(n3)N3CCN=C3N(c3c(Cl)cccc3Cl)C4=O)cc2C1    69
CN1CCN(c2ccc(Nc3ncc4c(n3)N3CCN=C3N(c3c(Cl)cccc3Cl)C4=O)cc2CO)CC1    96
CN(C)C1CCN(c2ccc(Nc3ncc4c(n3)N3CCN=C3N(c3c(F)cccc3Cl)C4=O)cc2F)CC1    98

Here is the next item to consider.
The recorded Inh. (%) of Wee1 kinase enzyme activity for C[C@@H]1CN(c2ccc(Nc3ncc4c(n3)N3CCN=C3N(c3c(F)cccc3Cl)C4=O)c(C(F)(F)F)c2)C[C@H](C)N1C is 2
